Taken from BindingDB's records for PubMed 7915318.

Below are pKi values recorded for Beta-2 adrenergic receptor (Cavia porcellus).
pKi: −log10 of the molar value.
EXPERIMENTAL READOUT: pKi

COc1cc(CC2c3cc(O)c(O)cc3CCN2C)cc(OC)c1OC (centres undefined) :: 6.07

1. COc1cc(CC2c3cc(O)c(O)cc3CCN2Cc2cccc(Cl)c2)cc(OC)c1OC (centres undefined)
2. COc1cc(CC2c3cc(O)c(O)cc3CCN2CCO)cc(OC)c1OC (centres undefined) [TMQ, N-hydroxyethyl]
Task: Compare 1 and 2 and name the one whose reported pKi is smaller. Label of pick, please.
Output: 2

---

Record set of Ki for target or system Beta-1 adrenergic receptor (Homo sapiens).
EXPERIMENTAL READOUT: Ki (nM)

Use the examples below as a reference point.
COc1cc(C[C@@H]2NCCc3cc(O)c(O)c(F)c32)cc(OC)c1OC [TMQ, S-(+)-8-Fluoro] :: 67.6
COc1cc(C[C@H]2NCCc3cc(O)c(O)c(F)c32)cc(OC)c1OC [TMQ, R-(-)-8-Fluoro] :: 417

A. COc1cc(CC2NCCc3c(F)c(O)c(O)c(F)c32)cc(OC)c1OC (centres undefined)
B. COc1cc(CC2NCCc3cc(O)c(O)cc32)cc(N)c1OC (centres undefined)
Task: // max by Ki over [ A , B ] Field: selected label. Fill in the label of the entry you choose.
Output: B
(B: 214 nM, A: 7.41 nM)
